- Tested on: A549 human lung cancer cell line
- Protocol Details: In vitro cytotoxicity (MTT), A549
- Format: cell-based
- Test Parameters: A549, 72 h, read-out: In Vitro Cytotoxicity (IC50), A549, Table 1, three day MTT assay
Counter-ions that a name gives are not always drawn.
Measure Name: IC50 (µg/mL)
Quick reminder: number only, in µg/mL, skip the unit.

Some solved cases for reference:
NC1CCN(c2c(F)cc3c(=O)c(C(=O)O)cn4c3c2Oc2cc(F)ccc2-4)C1 (centres unmarked) [Example 7, hydrochloride]
4.1
CCOC(=O)c1cn2c3c(c(N4CCC(NC(C)=O)C4)c(F)cc3c1=O)Oc1cc(C)ccc1-2 (centres unmarked) [6, step 2]
1.01
Cc1ccc2c(c1)Oc1c(N3CCC(N)C3)c(F)cc3c(=O)c(C(=O)O)cn-2c13 (centres unmarked) [Example 6, hydrochloride]
0.13
CCOC(=O)c1cn2c3c(c(N4CCC(NC(C)=O)C4)c(F)cc3c1=O)Oc1cc([N+](=O)[O-])ccc1-2 (centres unmarked) [Example 5]
0.13

Now, please, on to the next compound.
Please look at this compound and report its IC50: CCC[C@H](N)C(=O)NC1CCN(c2c(F)cc3c(=O)c(C(=O)O)cn4c3c2Oc2ccccc2-4)C1 (some centres unmarked) [Example 8, hydrochloride]
0.512
